# System: Plasmodium falciparum
# TEST NAME: GSK_TCMDC: Inhibition of Plasmodium falciparum 3D7 in whole red blood cells, using parasite LDH activity as an index of growth. Test compounds present at 2uM
# Type: functional

COMPOUND	Inhibition
CC(C)CC1c2[nH]c3ccccc3c2CCN1C(=O)CCc1ccccc1 (stereo not given)	92%
Cc1cc(NCCC(=O)Nc2ccccc2)nc(NCC2CCCCC2)n1.O=C(O)C(F)(F)F	100%
COc1ccc(-c2nc(NC(=O)CS(=O)(=O)c3ccc(F)cc3)sc2C)cc1	100%
Cc1cc(CN2CCCC(OC(c3ccc(F)cc3)c3ccc(F)cc3)C2)ccc1O (stereo not given)	89%
CCCCCCCCN1CCCN(C(=O)c2cccc(NC(=O)Nc3ccc4ccccc4c3)c2)CC1.O=C(O)C(F)(F)F	97%

* * *

# System: Plasmodium falciparum
# TEST NAME: GSK_TCMDC: Inhibition of Plasmodium falciparum Dd2 in whole red blood cells, using parasite LDH activity as an index of growth. Test compounds present at 2uM
# Assay type: functional
Classification scheme (Inhibition): lower band: < 30%; central band: ≥ 30% and < 90%; upper band: ≥ 90%

COMPOUND	QUALITATIVE LABEL
O=C(/C=C/c1ccc(CNCCN2CCOCC2)cc1)NCCc1ccccc1	lower band
FC(F)(F)c1cc(C(F)(F)F)c2cc(CNCCCNc3nc4ccccc4[nH]3)[nH]c2c1	upper band
COc1ccc(C=NN=c2cc(C)[nH]c3ccccc23)c(OC)c1	upper band
Cc1cc(=NN=CC=Cc2ccccc2)c2cc(F)ccc2[nH]1	central band
CCc1cn2c3c(cc(C(=O)N[C@@H](Cc4ccccc4)[C@H](O)CNCCOC)cc13)N(C)S(=O)(=O)CC2.O=CO	central band
O=C(Cc1cccc2ccccc12)NC1CCN(c2ccnc3cc(Cl)ccc23)C1.O=C(O)C(F)(F)F (stereo unspecified)	upper band
CC(=O)N(C)c1ccc(C(=O)Nc2cccc(-c3cccc(-c4nc5cc(C(F)(F)F)ccc5[nH]4)c3)c2)cc1	lower band
O=C(O)C(F)(F)F.O=S(=O)(c1ccccc1)n1ccc2cc(Nc3ncnc4cc(C#C[C@H]5CCCN5)sc34)ccc21	central band
Nc1nccc(-c2ccc3c(/C=C/c4ccccc4)cnc(N)c3c2)n1	upper band
CC(=O)N(C)C1CCN(Cc2ccc(-c3cccc(-c4nc5cc(F)ccc5[nH]4)c3)cc2)C1.O=C(O)C(F)(F)F (stereo unspecified)	central band
Nc1ccc(-c2nc3cc(Cc4ccc5[nH]c(-c6ccc(N)cc6)nc5c4)ccc3[nH]2)cc1	upper band
Cc1cc(C(=O)NC2CCN(Cc3ccccc3)CC2)ccc1-c1nc2ccc(C(F)(F)F)cc2[nH]1	lower band
COc1cc(C)c(C(O)CNC(C)CCc2ccccc2)cc1C.Cl (stereo unspecified)	upper band
N#Cc1cccc(C(=O)N2CCOC(CCN3CCC(c4ccccc4)CC3)(c3ccc(Cl)c(Cl)c3)C2)c1 (stereo unspecified)	central band
CCN(CC)CCN1C(=O)c2oc3ccc(Cl)cc3c(=O)c2C1c1ccc(SC)cc1 (stereo unspecified)	lower band
O=C(/C=C/c1ccc(Cl)c(Cl)c1)NCCCCCCN1CCCN(C(=O)Nc2ccc(F)c(Cl)c2)CC1	lower band
COc1ccc(C2CCN(CCN3CCC(NC(=O)c4ccc(-c5cccc(C(F)(F)F)c5C(F)(F)F)cc4)CC3)CC2)c(OC)c1	central band
O=C(Cc1ccc(Cl)cc1)Nc1cc(Cl)ccc1Cn1cnc(N2CCNCC2)cc1=O.O=C(O)C(F)(F)F	lower band
Cc1ccc(N2CCN(CCCCNC(=O)c3ccc(NC(=O)c4ccc(Cl)cc4)cc3)CC2)c(C)c1	lower band
COc1ccccc1CCNc1nc(C)cc(N[C@@H](Cc2ccccc2)C(=O)Nc2ccccc2)n1.O=C(O)C(F)(F)F	central band
COc1cccc(C(=O)Nc2nonc2-c2ccc(OC)c(OC)c2)c1	central band
Nc1ncc(-c2cn[nH]c2)cc1-c1nc2cc(Cl)cnc2[nH]1	central band
O=C(O)C(F)(F)F.O=S(=O)(NCCN1CCCC1)c1ccc(-c2ccc(CNC3Cc4ccccc4C3)cc2)cc1F	central band
COc1ccc(NC(=O)/C=C/c2ccccc2Cl)cc1OCCN1CCC(NCc2ccccc2)CC1	upper band
COc1ccc(NC(=O)Nc2ccc(C)c(-c3ccc(C(=O)Nc4ccncc4)cc3)c2)cc1	central band
CC(C)Nc1cc(C(=O)N[C@@H](Cc2ccccc2)[C@H](O)CNC2CCCCC2)cc(N2CCCCS2(=O)=O)c1.O=CO	upper band
COc1c(C2CCN(CCCCNC(=O)c3ccc(-c4ccc(NC(=O)C(F)(F)F)cc4)cc3)CC2)ccc2c1CCCC2	central band
Cc1cccc2nc(-c3ccc(-c4cccc(NC(=O)Cc5c[nH]cn5)c4)cc3)[nH]c12	lower band
OCCOCn1cnc2cnc(N[C@H]3OC[C@H](O)[C@@H](O)[C@@H]3O)nc21	lower band
CCCC1N=C(N)N=C(N)N1c1cccc(C(F)(F)F)c1.Cl (stereo unspecified)	lower band
CC(CCc1ccc(OCc2ccccc2)cc1)NCC(O)c1ccccc1 (stereo unspecified)	central band
O=C(Cc1ccc(NC(=O)c2ccc(O)c(-c3ccc(Cl)c(Cl)c3)c2)cc1)NCCN1CCOCC1	lower band
O=C(Nc1ccc(OC2CCN(Cc3ccc(F)cc3)C2)cc1)c1ccco1.O=C(O)C(F)(F)F (stereo unspecified)	central band
